experimental.system: DPP-IV (Homo sapiens, UniProt P27487)
Construct: purchased Enzyme Systems Products SPE-01
Sequence (P27487 whole entry, species assumed): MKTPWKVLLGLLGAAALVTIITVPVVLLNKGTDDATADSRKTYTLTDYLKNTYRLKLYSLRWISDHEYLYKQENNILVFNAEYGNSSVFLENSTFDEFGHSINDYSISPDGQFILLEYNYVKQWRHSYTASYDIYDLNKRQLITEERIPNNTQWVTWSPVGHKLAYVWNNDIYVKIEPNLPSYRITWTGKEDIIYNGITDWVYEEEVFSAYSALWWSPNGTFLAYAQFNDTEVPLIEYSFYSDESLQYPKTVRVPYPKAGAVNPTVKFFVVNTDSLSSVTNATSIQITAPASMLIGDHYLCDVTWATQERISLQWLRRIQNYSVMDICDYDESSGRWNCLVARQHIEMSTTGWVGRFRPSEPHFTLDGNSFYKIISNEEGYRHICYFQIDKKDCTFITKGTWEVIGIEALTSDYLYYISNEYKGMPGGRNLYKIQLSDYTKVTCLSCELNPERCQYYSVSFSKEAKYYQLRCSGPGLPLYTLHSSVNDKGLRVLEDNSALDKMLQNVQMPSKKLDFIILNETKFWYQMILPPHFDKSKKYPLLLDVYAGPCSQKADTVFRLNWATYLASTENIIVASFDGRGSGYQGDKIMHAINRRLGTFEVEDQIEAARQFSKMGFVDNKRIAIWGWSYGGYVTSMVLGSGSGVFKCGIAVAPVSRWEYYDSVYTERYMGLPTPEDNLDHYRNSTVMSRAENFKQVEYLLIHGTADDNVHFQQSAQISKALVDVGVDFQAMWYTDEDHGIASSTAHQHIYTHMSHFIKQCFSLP
assay.comment: In vitro assay for dipeptidyl peptidase inhibition
Assay type: biochemical
experimental.conditions: hydrochloride salts; Gly-Pro-4-methoxy B naphthylamide substrate; overnight at 37° C.; read-out: IC50 (concentration of test compound required for 50% inhibition), bound given in μM
Examples of compounds with documented IC50 follow.

# smiles.entry, IC50
records = [
    ("N[C@H](C(=O)N1CCCC1)[C@H]1CC[C@@H](NC(=O)[C@@H]2CNC(=O)N2C(=O)OCc2ccccc2)CC1", "≤ 1 µM"),
    ("N[C@H](C(=O)N1CCCC1)[C@H]1CC[C@@H](NC(=O)[C@@H]2COCN2C(=O)OCc2ccccc2)CC1", "≤ 1 µM"),
]
